Reference for the values: ChEMBL document CHEMBL2146417

Assay: Octanol-phosphate buffered saline partition coefficient, log K of the compound
Type: physicochemical
Settings: octanol/phosphate buffered saline; read-out: log K
Rule: logD below 0.3 gives y, anything at or above gives n.

# example entries with known answers
NCCOc1cccc2c(O)cccc12: y
NCCc1ccc2ccc3cccc4ccc1c2c34: n
NCCc1c2ccccc2cc2ccccc12: n
NCCc1c[nH]c2ccc(O)cc12: y
COc1cccc2c(OCCN)cccc12: y
NCCn1cc2c(nc1=O)Nc1ccccc1S2: n
NCCN1C(=O)c2cccc3c(N)ccc(c23)C1=O: y

Attention now turns to another entry.
Req: Does this compound meet the criterion logD < 0.3? `NCCc1ccc(O)c(O)c1`
Resp: y
